# assay.protocol: Solubility measurement of saturated solutions by HPLC at room temperature (0 h and 24 h)
# Assay type: physicochemical
# experimental.context: buffered water with excipient (saturated solution), pH 4, aqueous with cosolvent or surfactant or cyclodextrin, thermodynamic from solid, CBS 30 mM pH 4.0; PG 500 mg/mL; 24 h; pH exp 5.3

{"smiles": "COc1cc(N2CCNCC2)ccc1Nc1ncc2c(n1)-n1ccc(C(=O)Nc3c(C)cccc3C)c1CC2", "solubility at 24 h / µg/mL": 2200}

* * *

# assay.protocol: Solubility measurement of saturated solutions by HPLC at room temperature (0 h and 24 h)
# Assay type: physicochemical
# experimental.context: buffered water with excipients, pH 4, aqueous with cosolvent or surfactant or cyclodextrin, thermodynamic from solid, CBS 30 mM pH 4.0; SBE-beta-CD 54 mg/mL + Ethanol 16 mg/mL; 0 h; pH exp 4.1
property.name: solubility at 0 h

{"molecule": "COc1cc(N2CCNCC2)ccc1Nc1ncc2c(n1)-n1ccc(C(=O)Nc3c(C)cccc3C)c1CC2 [compound of formula (I)]", "result": "2490 µg/mL"}

* * *

# assay.protocol: Solubility measurement of saturated solutions by HPLC at room temperature (0 h and 24 h)
# Type: physicochemical
# experimental.context: buffered water with excipient (saturated solution), pH 5, aqueous with cosolvent or surfactant or cyclodextrin, thermodynamic from solid, CBS 30 mM pH 5.0, NaCl 3 mg/mL; SBE-beta-CD 40 mg/mL; 24 h; pH exp 5.3

{"smiles": "COc1cc(N2CCNCC2)ccc1Nc1ncc2c(n1)-n1ccc(C(=O)Nc3c(C)cccc3C)c1CC2", "solubility at 24 h / mg/mL": 3.52}

* * *

# assay.protocol: Solubility measurement of saturated solutions by HPLC at room temperature (0 h and 24 h)
# Type: physicochemical
# experimental.context: buffered water with excipient (saturated solution), pH 4, aqueous with cosolvent or surfactant or cyclodextrin, thermodynamic from solid, CBS 30 mM pH 4.0, NaCl 3 mg/mL; HP-beta-CD 40 mg/mL; 24 h; pH exp 4.28

{"molecule": "COc1cc(N2CCNCC2)ccc1Nc1ncc2c(n1)-n1ccc(C(=O)Nc3c(C)cccc3C)c1CC2 [compound of formula (I)]", "solubility at 24 h / µg/mL": 980}

* * *

# assay.protocol: Solubility measurement of saturated solutions by HPLC at room temperature (0 h and 24 h)
# Assay type: physicochemical
# experimental.context: buffered water with excipients, pH 4, aqueous with cosolvent or surfactant or cyclodextrin, thermodynamic from solid, CBS 30 mM pH 4.0, NaCl 3 mg/mL; SBE-beta-CD 40 mg/mL + PEG 400 5 mg/mL; 0 h; pH exp 4.1

{"compound": "COc1cc(N2CCNCC2)ccc1Nc1ncc2c(n1)-n1ccc(C(=O)Nc3c(C)cccc3C)c1CC2 [compound of formula (I)]", "solubility at 0 h [µg/mL]": 2340}

* * *

# assay.protocol: Solubility measurement of saturated solutions by HPLC at room temperature (0 h and 24 h)
# Type: physicochemical
# experimental.context: buffered water with excipient (saturated solution), pH 4, aqueous with cosolvent or surfactant or cyclodextrin, thermodynamic from solid, CBS 30 mM pH 4.0, NaCl 3 mg/mL; SBE-beta-CD 25 mg/mL; 0 h; pH exp 4.1
# Method: The vial contents are prepared starting with 2.5 mg of the compound of formula (I). The primary excipient is added followed by any further excipient and then the buffered water to a total volume of 500 μL. All components are mixed in a vortex mixer for ca. 5 minutes. […] The solubility in vial 1 is measured immediately as described below. To measure solubility 400 μl of the suspension are taken and placed in a centrifugation device above a 0.2 μm filter. […] The pH of the solution is measured. […]
property.name: solubility at 0 h (µg/mL)

{"smiles": "COc1cc(N2CCNCC2)ccc1Nc1ncc2c(n1)-n1ccc(C(=O)Nc3c(C)cccc3C)c1CC2", "numeric.value": 1840}

* * *

# assay.protocol: Solubility measurement of saturated solutions by HPLC at room temperature (0 h and 24 h)
# Format: physicochemical
# experimental.context: buffered water with excipients, pH 4, aqueous with cosolvent or surfactant or cyclodextrin, thermodynamic from solid, CBS 30 mM pH 4.0, NaCl 3 mg/mL; SBE-beta-CD 40 mg/mL + PEG 4000 5 mg/mL; 24 h; pH exp 4.2

{"compound": "COc1cc(N2CCNCC2)ccc1Nc1ncc2c(n1)-n1ccc(C(=O)Nc3c(C)cccc3C)c1CC2 [compound of formula (I)]", "solubility at 24 h / µg/mL": 3670}

* * *

# assay.protocol: Solubility measurement of saturated solutions by HPLC at room temperature (0 h and 24 h)
# Assay type: physicochemical
# experimental.context: buffered water with excipient (saturated solution), pH 4, aqueous with cosolvent or surfactant or cyclodextrin, thermodynamic from solid, CBS 30 mM pH 4.0; Glycerol 500 mg/mL; 24 h; pH exp 4.8

{"smiles": "COc1cc(N2CCNCC2)ccc1Nc1ncc2c(n1)-n1ccc(C(=O)Nc3c(C)cccc3C)c1CC2", "solubility at 24 h / µg/mL": 260}

* * *

# assay.protocol: Solubility measurement of saturated solutions by HPLC at room temperature (0 h and 24 h)
# Format: physicochemical
# experimental.context: buffered water with excipients, pH 4, aqueous with cosolvent or surfactant or cyclodextrin, thermodynamic from solid, LBS (lactate) 30 mM pH 4.0, NaCl 3 mg/mL; SBE-beta-CD 40 mg/mL; 0 h; pH exp 4.1

{"smiles": "COc1cc(N2CCNCC2)ccc1Nc1ncc2c(n1)-n1ccc(C(=O)Nc3c(C)cccc3C)c1CC2", "solubility at 0 h, µg/mL": 2690}

* * *

# assay.protocol: Solubility measurement of saturated solutions by HPLC at room temperature (0 h and 24 h)
# Format: physicochemical
# experimental.context: buffered water with excipient (saturated solution), pH 4, aqueous with cosolvent or surfactant or cyclodextrin, thermodynamic from solid, CBS 30 mM pH 4.0; PEG 100 mg/mL; 24 h; pH exp 4.5

{"smiles": "COc1cc(N2CCNCC2)ccc1Nc1ncc2c(n1)-n1ccc(C(=O)Nc3c(C)cccc3C)c1CC2", "unit": "µg/mL", "solubility at 24 h": 400}

* * *

# assay.protocol: Solubility measurement of saturated solutions by HPLC at room temperature (0 h and 24 h)
# Assay type: physicochemical
# experimental.context: buffered water with excipients, pH 4, aqueous with cosolvent or surfactant or cyclodextrin, thermodynamic from solid, CBS 30 mM pH 4.0; SBE-beta-CD 54 mg/mL + PEG 300 56 mg/mL; 24 h; pH exp 4.3
property.name: solubility at 24 h (mg/mL)

{"compound": "COc1cc(N2CCNCC2)ccc1Nc1ncc2c(n1)-n1ccc(C(=O)Nc3c(C)cccc3C)c1CC2 [compound of formula (I)]", "unit": "mg/mL", "numeric.value": 4.03}

* * *

# assay.protocol: Solubility measurement of saturated solutions by HPLC at room temperature (0 h and 24 h)
# Type: physicochemical
# experimental.context: buffered water with excipients, pH 4, aqueous with cosolvent or surfactant or cyclodextrin, thermodynamic from solid, CBS 30 mM pH 4.0, NaCl 3 mg/mL; SBE-beta-CD 40 mg/mL + Kollidon 12 P188 5 mg/mL; 24 h; pH exp 4.2
property.name: solubility at 24 h (µg/mL)

{"smiles": "COc1cc(N2CCNCC2)ccc1Nc1ncc2c(n1)-n1ccc(C(=O)Nc3c(C)cccc3C)c1CC2", "property.name": "solubility at 24 h", "numeric.value": 3710}

* * *

# assay.protocol: Solubility measurement of saturated solutions by HPLC at room temperature (0 h and 24 h)
# Format: physicochemical
# experimental.context: buffered water with excipients, pH 4, aqueous with cosolvent or surfactant or cyclodextrin, thermodynamic from solid, CBS 30 mM pH 4.0, NaCl 3 mg/mL; SBE-beta-CD 40 mg/mL + PEG 400 10 mg/mL; 0 h; pH exp 4.1

{"compound": "COc1cc(N2CCNCC2)ccc1Nc1ncc2c(n1)-n1ccc(C(=O)Nc3c(C)cccc3C)c1CC2 [compound of formula (I)]", "solubility at 0 h / µg/mL": 2590}

* * *

# assay.protocol: Solubility measurement of saturated solutions by HPLC at room temperature (0 h and 24 h)
# Assay type: physicochemical
# experimental.context: buffered water with excipient (saturated solution), pH 5.5, aqueous with cosolvent or surfactant or cyclodextrin, thermodynamic from solid, CBS 30 mM pH 5.5, NaCl 3 mg/mL; SBE-beta-CD 40 mg/mL; 0 h; pH exp 5.5
property.name: solubility at 0 h (µg/mL)

{"smiles": "COc1cc(N2CCNCC2)ccc1Nc1ncc2c(n1)-n1ccc(C(=O)Nc3c(C)cccc3C)c1CC2", "numeric.value": 1630}

* * *

# assay.protocol: Solubility measurement of saturated solutions by HPLC at room temperature (0 h and 24 h)
# Type: physicochemical
# experimental.context: buffered water with excipient (saturated solution), pH 4, aqueous with cosolvent or surfactant or cyclodextrin, thermodynamic from solid, CBS 30 mM pH 4.0, NaCl 3 mg/mL; SBE-beta-CD 25 mg/mL; 24 h; pH exp 4.2

{"smiles": "COc1cc(N2CCNCC2)ccc1Nc1ncc2c(n1)-n1ccc(C(=O)Nc3c(C)cccc3C)c1CC2", "solubility at 24 h": "2540 µg/mL"}

These measurements were taken from patent US20250049926A1.
